Consider the following molecules; for each one, report its CC50 at 120 h.
- Measurement Protocol: Cytotoxicity against human MT4 cells assessed as reduction in cell viability incubated for 5 days by MTT assay
- Type: toxicity, cell-based
- Experimental Context: time 5 day

I am curious: what CC50 at 120 h value has been reported for Cc1cc(C#N)cc(C)c1Oc1nc(Nc2ccc(C#N)cc2)nc2c1CN(C(=O)c1cccc(C(F)(F)F)c1)CC2 ?
> 220 µM

Now give it for Cc1cc(C#N)cc(C)c1Oc1nc(Nc2ccc(C#N)cc2)nc2c1CNCC2 too.
19.7 µM

Another molecule: Cc1ccnc2c1NC(=O)c1cccnc1N2C1CC1 [NEVIRAPINE]
> 15 µM

Also check CCC(=O)N1CCc2nc(Nc3ccc(C#N)cc3)nc(Oc3c(C)cc(C#N)cc3C)c2C1
10.8 µM

Okay, and Cc1ccc(C(=O)N2CCc3nc(Nc4ccc(C#N)cc4)nc(Oc4c(C)cc(C#N)cc4C)c3C2)cc1 ?
> 243 µM

Again, but for C=CC(=O)N1CCc2nc(Nc3ccc(C#N)cc3)nc(Oc3c(C)cc(C#N)cc3C)c2C1
11.1 µM

Next record, please: Cc1cc(C#N)cc(C)c1Oc1nc(Nc2ccc(C#N)cc2)nc(N)c1Br [ETRAVIRINE]
> 4.61 µM
